Species on record: Homo sapiens
Experiment: Ratio of compound IC50 to (4aR,4bS,6aS,7S,9aS,9bS,11aR)-N,N-diethyl-1,4a,6a-trimethyl-2-oxohexadecahydro-1H-indeno[5,4-f]quinoline-7-carboxamide IC50 for human steroid 5alpha-reductase
MEASUREMENT_KIND: Ratio IC50

MOLECULE | RESULT_NUMBER
CCN(CC)C(=O)[C@H]1CC[C@H]2[C@@H]3CC[C@H]4N(C)C(=O)[C@@H](OC)C[C@]4(C)[C@H]3CC[C@]12C | 15
CCC(C)C(=O)[C@H]1CC[C@H]2[C@@H]3CC[C@H]4NC(=O)CC[C@]4(C)[C@H]3CC[C@]12C (some centres undefined) | 4
CCOC(=O)C[C@H]1CC[C@H]2[C@@H]3CC[C@H]4N(C)C(=O)CC[C@]4(C)[C@H]3CC[C@]12C | 29
CC(C)(C)CC(C)(C)NC(=O)[C@H]1CC[C@H]2[C@@H]3CC[C@H]4NC(=O)CC[C@]4(C)[C@H]3CC[C@]12C | 0.56
